Reported values of melting point for individual entries
Assay Readout: melting point

[
  {
    "Given Smiles": "N#Cc1ccc2occ(CCCCN3CCN(c4cccc5[nH]c(=O)oc45)CC3)c2c1",
    "Obs Value": "180 to 182 °C"
  },
  {
    "Given Smiles": "Cn1c(=O)oc2c(N3CCN(CCCCc4csc5ccc(C#N)cc45)CC3)cccc21",
    "Obs Value": "184 to 186 °C"
  },
  {
    "Given Smiles": "O=c1[nH]c2cccc(N3CCN(CCCc4csc5ccc(Cl)cc45)CC3)c2o1",
    "Obs Value": "211 to 213 °C"
  },
  {
    "Given Smiles": "O=c1[nH]c2cccc(N3CCN(CCCc4csc5ccc(F)cc45)CC3)c2o1",
    "Obs Value": "193 to 195 °C"
  },
  {
    "Given Smiles": "O=c1[nH]c2cccc(N3CCN(CCCCn4ccc5ccc(F)cc54)CC3)c2o1",
    "Obs Value": "143 to 145 °C"
  }
]
